Reference for the values: patent US12485134B2

assay_method_text: Degradation tracking of 15N NR-Cl to 15N nicotinamide by 15N-1H HMBC and 1H NMR, with or without whey protein
Format: physicochemical
reported_conditions: PBS buffer with whey protein; buffered pH 7, 25° C., in the presence of Whey protein
reported_property: half-life (days)
One number for each entry, in days.

Summary for this compound, NC(=O)c1ccc[15n+]([C@@H]2O[C@H](CO)[C@@H](O)[C@H]2O)c1 [^15N NR-Cl] : half-life is 28
